Please provide measured maximal culture density for the entries that follow.
Tested on: Aspergillus nidulans_XP_660563
ASSAY_INFO: maximal culture density with compound as sole sulfur source (OD600); higher = better growth
CONDITION_PARAMETERS: sulfur source concentration 200 µM; S. cerevisiae S288C/BY sul1Δ sul2Δ soa1Δ with transporter ortholog inserted at SOA1 locus; sulfur-free B medium, 4% glucose, pH 6.5, sole sulfur source
Counter-ions that a name gives are not always drawn.
Reply with just the number.

Recorded maximal culture density (molecule O=S(=O)(O)CO [Hydroxymethane sulfonate] ): 0.318

Recorded maximal culture density (molecule O=S(O)O ): 0.322

Recorded maximal culture density (molecule O=S(=O)(O)O [sulfate] ): 0.31

Recorded maximal culture density (molecule CSCC[C@H](N)C(=O)O ): 1.6

Recorded maximal culture density (molecule O=C(O)CS(=O)(=O)O ): 0.308

Recorded maximal culture density (molecule C[N+](C)(C)CCOS(=O)(=O)[O-] [Choline sulfate] ): 0.381

Recorded maximal culture density (molecule O=S(=O)(O)CCO [Isethionate] ): 0.332

Recorded maximal culture density (molecule N[C@@H](CS(=O)(=O)O)C(=O)O ): 0.535

Recorded maximal culture density (molecule CCCCS(=O)(=O)O [Butanesulfonate] ): 0.355

Recorded maximal culture density (molecule NCCS(=O)(=O)O ): 0.311

Recorded maximal culture density (molecule CCS(=O)(=O)O [Ethanesulfonate] ): 0.314

Recorded maximal culture density (molecule CCCS(=O)(=O)O [Propanesulfonate] ): 0.327

---

Tested on: Ogataea parapolymorpha_XP_013935289
ASSAY_INFO: maximal growth rate with compound as sole sulfur source (OD600 per h); higher = better growth / uptake of the sulfur source
CONDITION_PARAMETERS: sulfur source concentration 200 µM; S. cerevisiae S288C/BY sul1Δ sul2Δ soa1Δ with transporter ortholog inserted at SOA1 locus; sulfur-free B medium, 4% glucose, pH 6.5, sole sulfur source
Given measured maximal growth rate, output true (1) if it is greater than or equal to 0.07 and false (0) if not.

Exercise: Reported maximal growth rate at or above 0.07? N[C@@H](CS(=O)(=O)O)C(=O)O [L-cysteic acid]
Solution: false (0)

Exercise: Reported maximal growth rate at or above 0.07? O=S(=O)(O)O [sulfate]
Solution: true (1)

Exercise: Reported maximal growth rate at or above 0.07? CCS(=O)(=O)O [Ethanesulfonate]
Solution: true (1)

---

Tested on: Ogataea parapolymorpha_XP_013935289
ASSAY_INFO: lag phase before growth; higher = slower start of growth
CONDITION_PARAMETERS: sulfur source concentration 200 µM; S. cerevisiae S288C/BY sul1Δ sul2Δ soa1Δ with transporter ortholog inserted at SOA1 locus; sulfur-free B medium, 4% glucose, pH 6.5, sole sulfur source
Structures can show the parent of a compound that is named as a salt.
Given measured lag phase before growth, output YES if it is greater than or equal to 8 h and NO if not.

Exercise: Reported lag phase before growth at or above 8 h? N[C@@H](CS(=O)(=O)O)C(=O)O [L-cysteic acid]
Solution: YES

Exercise: Reported lag phase before growth at or above 8 h? CCS(=O)(=O)O [Ethanesulfonate]
Solution: YES

Exercise: Reported lag phase before growth at or above 8 h? CCCS(=O)(=O)O [Propanesulfonate]
Solution: YES

Exercise: Reported lag phase before growth at or above 8 h? O=S(=O)(O)O [sulfate]
Solution: YES

Exercise: Reported lag phase before growth at or above 8 h? O=S(O)O [sulfite]
Solution: NO

Exercise: Reported lag phase before growth at or above 8 h? CSCC[C@H](N)C(=O)O [Methionine]
Solution: NO

Exercise: Reported lag phase before growth at or above 8 h? C[N+](C)(C)CCOS(=O)(=O)[O-] [Choline sulfate]
Solution: YES

Exercise: Reported lag phase before growth at or above 8 h? O=S(=O)(O)CO [Hydroxymethane sulfonate]
Solution: NO

Exercise: Reported lag phase before growth at or above 8 h? CCCCS(=O)(=O)O [Butanesulfonate]
Solution: NO

Exercise: Reported lag phase before growth at or above 8 h? O=C(O)CS(=O)(=O)O [Sulfoacetic acid]
Solution: YES
